// provenance: patent US4048161A

# System: Salmonella heidelberg
Please provide measured MIC for the entries that follow.
Provide the measurement as a number trailed by its unit.

Below, 3 compounds whose answers are already recorded.
CC(=O)OCC1=C(C(=O)O)N2C(=O)C(NC(=O)C(NC(=O)c3nc4ccccc4[nH]3)c3ccccc3)C2SC1 (stereo not shown); 22 µg/mL
Cn1nnnc1SCC1=C(C(=O)O)N2C(=O)C(NC(=O)C(NC(=O)c3nc4ccccc4[nH]3)c3cccs3)C2SC1 (stereo not shown); 7.5 µg/mL
Cn1nnnc1SCC1=C(C(=O)O)N2C(=O)C(NC(=O)C(NC(=O)c3nc4ccccc4[nH]3)c3ccccc3)C2SC1 (stereo not shown); 6.5 µg/mL

With those in mind, consider the next compound.
Record NC(=O)OCC1=C(C(=O)O)N2C(=O)C(NC(=O)C(NC(=O)c3nc4ccccc4[nH]3)c3ccc(O)cc3)C2SC1 (stereo not shown) . Reported MIC: 19.5 µg/mL
